assay: in vivo; details: male, rhesus monkey, 20 mg/kg
measured.property: AUC
Quick note: unit goes after the number.

**Q:** Identify the reported AUC for the following entry. Nc1nc(=O)n([C@@H]2CS[C@H](CO)O2)cc1F [FTC, emtricitabine]
**A:** 11 µg·h/mL
